Values of IC50 reported for CCK receptor, mouse brain membranes (Mus musculus) appear below.
Give bare numbers, in nM.

O=C1NN(c2nc3c(Cl)c(Cl)ccc3s2)[C@@H](c2ccccc2)[C@@H]1c1ccccc1 (relative stereo) ... 1100

I'm curious: which IC50 was measured for O=C1NN(C(=O)Nc2ccc3ccccc3c2)[C@@H](c2ccccc2)[C@@H]1c1ccccc1 (relative stereo) tested on CCK receptor, mouse brain membranes (Mus musculus)?
10
